Measured IC50 of individual entries
Measurement target: p110α/p85α (Homo sapiens (Human))
Sequence (P42336 whole entry): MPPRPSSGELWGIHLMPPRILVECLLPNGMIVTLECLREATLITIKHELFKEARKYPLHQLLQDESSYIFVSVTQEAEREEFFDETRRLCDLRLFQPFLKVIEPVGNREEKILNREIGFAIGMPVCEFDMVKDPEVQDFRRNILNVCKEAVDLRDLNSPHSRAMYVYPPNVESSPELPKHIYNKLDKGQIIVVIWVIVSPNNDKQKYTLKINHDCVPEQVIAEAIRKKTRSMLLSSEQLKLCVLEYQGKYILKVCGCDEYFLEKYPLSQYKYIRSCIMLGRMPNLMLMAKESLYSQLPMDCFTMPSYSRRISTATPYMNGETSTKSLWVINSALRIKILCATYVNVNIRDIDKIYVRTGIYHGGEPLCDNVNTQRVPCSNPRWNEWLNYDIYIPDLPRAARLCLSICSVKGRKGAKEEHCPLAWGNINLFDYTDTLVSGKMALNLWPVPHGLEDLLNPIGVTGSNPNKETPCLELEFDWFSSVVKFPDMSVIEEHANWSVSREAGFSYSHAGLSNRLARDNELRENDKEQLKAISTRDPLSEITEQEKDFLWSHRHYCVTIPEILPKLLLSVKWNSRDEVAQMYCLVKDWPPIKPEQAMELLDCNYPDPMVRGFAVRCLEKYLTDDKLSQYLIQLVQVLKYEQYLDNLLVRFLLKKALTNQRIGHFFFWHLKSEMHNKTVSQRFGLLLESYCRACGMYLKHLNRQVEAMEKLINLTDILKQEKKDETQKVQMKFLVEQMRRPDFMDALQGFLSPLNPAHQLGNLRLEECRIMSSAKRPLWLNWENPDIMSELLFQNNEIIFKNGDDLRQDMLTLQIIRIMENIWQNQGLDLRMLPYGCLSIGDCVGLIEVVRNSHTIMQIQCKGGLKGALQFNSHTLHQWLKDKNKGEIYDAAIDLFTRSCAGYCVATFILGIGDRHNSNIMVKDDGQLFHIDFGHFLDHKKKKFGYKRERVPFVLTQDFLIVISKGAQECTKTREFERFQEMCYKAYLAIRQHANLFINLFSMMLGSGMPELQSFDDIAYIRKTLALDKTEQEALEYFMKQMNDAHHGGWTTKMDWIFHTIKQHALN
Sequence (P27986 whole entry partner): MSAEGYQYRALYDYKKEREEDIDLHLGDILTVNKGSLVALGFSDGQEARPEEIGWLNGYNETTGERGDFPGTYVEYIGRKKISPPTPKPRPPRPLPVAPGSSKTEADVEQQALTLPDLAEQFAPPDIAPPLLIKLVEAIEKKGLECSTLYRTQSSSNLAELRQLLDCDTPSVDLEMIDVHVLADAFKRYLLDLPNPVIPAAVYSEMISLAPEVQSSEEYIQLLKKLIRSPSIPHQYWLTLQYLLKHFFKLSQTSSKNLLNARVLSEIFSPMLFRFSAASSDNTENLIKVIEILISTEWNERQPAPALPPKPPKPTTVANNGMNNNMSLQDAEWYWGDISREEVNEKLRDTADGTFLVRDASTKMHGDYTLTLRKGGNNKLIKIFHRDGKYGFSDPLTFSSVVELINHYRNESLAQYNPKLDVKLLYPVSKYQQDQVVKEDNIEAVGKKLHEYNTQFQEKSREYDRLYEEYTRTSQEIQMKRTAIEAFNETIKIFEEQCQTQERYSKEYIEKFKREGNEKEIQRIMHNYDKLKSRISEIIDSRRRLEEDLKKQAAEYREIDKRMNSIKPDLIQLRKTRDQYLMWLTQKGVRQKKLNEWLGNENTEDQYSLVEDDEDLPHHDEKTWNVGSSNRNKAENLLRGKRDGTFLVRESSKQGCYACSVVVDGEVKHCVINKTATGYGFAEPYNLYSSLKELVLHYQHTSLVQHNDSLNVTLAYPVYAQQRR
Protocol notes: PI 3-Kinase (human) HTRF assay, p110α/p85α
Assay type: biochemical
Stated conditions: read-out: PI3K α In Vitro IC50

Use the examples below as a reference point.
Compound: O=C(c1cnc2ccc(-c3cnc(Cl)c(NS(=O)(=O)c4cccc(F)c4)c3)cn12)N1CCOCC1
IC50: < 100 nM
//
Compound: C[C@@H]1CN(C2CN(C(=O)c3cnc4ccc(-c5ccc6oc(N)nc6c5)cn34)C2)CCN1C
IC50: < 100 nM
//
Compound: Nc1nc2ccc(-c3cc(F)c4ncc(C(=O)N5CCOCC5)n4c3)cc2o1
IC50: < 10000 nM

Record `CNc1nc2cc(-c3ccc4ncc(C(=O)N5CCOCC5)n4c3)ccc2o1` : what is its IC50 with p110α/p85α (Homo sapiens (Human))?
< 10000 nM

I'm curious: which IC50 was measured for `Nc1nc2cc(-c3ccc4ncc(C(=O)N5CC6CCC(C5)O6)n4c3)ccc2o1` tested on p110α/p85α (Homo sapiens (Human))?
< 1000 nM

Item: `O=C(c1cnc2ccc(-c3cncc(NS(=O)(=O)c4ccccc4)c3)cn12)N1CCOCC1` Test system: p110α/p85α (Homo sapiens (Human)) Read-out: IC50 Value: ?
< 1000 nM

Please state recorded IC50 (tested on p110α/p85α (Homo sapiens (Human))) of `CO[C@H]1CCN(C(=O)c2cnc3ccc(-c4ccc5oc(N)nc5c4)cn23)C1`
< 100 nM

Missing value: IC50, p110α/p85α (Homo sapiens (Human)), entry `COc1ncc(-c2ccc3ncn(C4CCN(C)CC4)c(=O)c3c2)cc1NS(=O)(=O)c1ccccc1` . Fill in?
< 100 nM

Kindly state the measured IC50 obtained for `Nc1nc2cc(-c3ccc4ncc(C(=O)N5CC(N6CC[C@H](O)C6)C5)n4c3)ccc2o1` with p110α/p85α (Homo sapiens (Human)).
< 100 nM

Form: Entry = `Nc1nsc2c(-c3ccc4ncc(C(=O)N5CCOCC5)n4c3)cccc12` | System = p110α/p85α (Homo sapiens (Human)) | IC50 = ____
< 10000 nM

What measured IC50 is associated with `COc1ncc(-c2ccc3ncc(C(=O)N4CCOCC4)n3c2)cc1NS(=O)(=O)c1ccc(F)cc1F` on p110α/p85α (Homo sapiens (Human))?
< 100 nM
